src = PubChem BioAssay (NCI)

# System: HL-60(TB) leukemia
# assay protocol: NCI tumour cell line growth inhibition, 48 h
measured metric: TGI (µM)
Answer format: numeric, µM implied, no suffix.

- COC(O)C12OC3CO[Si](C(C)C)(C(C)C)O[Si](C(C)C)(C(C)C)OC3C1Oc1nc(=O)ccn12 (centres undefined): 13.2

Turning to the following compound.
Challenge: Look up TGI with HL-60(TB) leukemia for this compound: CC(C)(C)c1[nH]nc2c1C(c1cc3ccccc3[nH]c1=O)Nc1cc(C(=O)Nc3ccc(Cl)cc3)ccc1N2 (centres undefined)
Response given: 5.64

----------
# System: A549 NSCLC
# assay protocol: NCI tumour cell line growth inhibition, 48 h
measured metric: TGI (µM)
Answer format: numeric, µM implied, no suffix.

// solved cases for TGI follow
• COc1cc(/C=C/C(=O)c2cc(OC)c(OC)c(OC)c2)ccc1Oc1nc2c(c(=O)n(C)c(=O)n2C)n1C = 6.52
• O=C1/C(=C\c2ccc(Br)cc2)CN(C(=O)c2ccccc2F)C/C1=C\c1ccc(Br)cc1 = 6.16
• CCN1CCN(c2cc(C)nc(N(CCCNc3ccnc4cc(Cl)ccc34)Cc3cccs3)n2)CC1 = 14.4

Turning to the following molecule.
Challenge: Look up TGI with A549 NSCLC for this molecule: CC(=O)OCC1OC(OC2=C(CC=C(C)C)C(=O)c3ccccc3C2=O)C(OC(C)=O)C(OC(C)=O)C1OC(C)=O (stereo not given)
Response given: 40

----------
# Tested on: MOLT-4 leukemia
# assay protocol: NCI tumour cell line growth inhibition, 48 h; in the data active = GI50 below about 0.43 µM; inactive = the rest
Pick one: active, inactive

Worked examples, 4 compounds total:
• O=C([O-])c1ccc2c(c1)-c1nc-2nc2[n-]c(nc3nc(nc4[n-]c(n1)c1ccc(C(=O)[O-])cc41)-c1ccc(C(=O)[O-])cc1-3)c1ccc(C(=O)[O-])cc21.[Gd+3].[K+] = inactive
• CC1=C(SCCC(=O)OCC(=O)NCCC[Te]c2ccccc2)C(=O)c2ccccc2C1=O = inactive
• COc1cc(CC(C)C(C)Cc2ccc(O)c(OC)c2)ccc1O (configuration not stated) = inactive
• COc1cc(C(=O)/C=C/c2c(-c3cccs3)nc3sc(C)cn23)cc(OC)c1OC = inactive

Challenge: Which result was noted for this compound in the test: Cc1c(NC(=O)c2cc(C(N)=O)nc3cc(F)ccc23)c(C(F)(F)F)nn1Cc1ccc(C#N)cc1
Response given: inactive

Challenge: What would you report for O=C1C=CC(=O)c2c1c1c(c3c2C2c4ccccc4C3c3ccccc32)C2c3ccccc3C1c1ccccc12 ?
Response given: active

Challenge: What would you report for CCN1CCN(c2cc(C)nc(N(CCCNc3ccnc4cc(Cl)ccc34)Cc3cccs3)n2)CC1 ?
Response given: inactive

----------
# Tested on: LOX IMVI melanoma
# assay protocol: NCI tumour cell line growth inhibition, 48 h; in the data active means GI50 below about 0.43 µM; inactive means the rest
Pick one: True = active, False = inactive

Worked examples, 8 compounds total:
• COc1ccc(C2=C(c3cn(C)c4ccccc34)C(=O)NC2=O)cc1 = False
• COc1cc2c3c(n(CCCN=[N+]=[N-])c(=O)c2cc1OC)-c1ccc(C#N)cc1C3=O = False
• Cn1nc(-c2cccs2)cc1/N=C(\N)C(C)(C#N)Cc1ccccc1 (centres undefined) = False
• COC1C(CO)OC(n2c3ccccc3c3c4c(c5c6ccccc6[nH]c5c32)C(=O)NC4=O)C(OC(=O)C(N)CCCCN)C1O (centres undefined) = True
• O=c1c(O)c(O)c1=O.[NH2-].[NH2-].[NH2-].[NH2-].[NH2-].[Ru+5] = False
• N#CC(C#N)=C/C=C(\Sc1ccc(F)c(Cl)c1)c1ccc(Cl)cc1 = True
• COc1cccc2c1C(CO)N1C(C#N)C3CC(C(=O)O)C(C1C2)N3C (centres undefined) = True
• CC1(C)CCC(S(=O)(=O)c2ccc3c(c2)/C(=N\O)c2cc(S(=O)(=O)N4CCN(c5ccc(F)cc5O)CC4)ccc2-3)CC1 = True

Okay, next one:
Challenge: Which result was noted for this compound in the test: CCN(CC)c1ccc(N=O)cc1
Response given: False
